system: HOP-62 NSCLC; test: NCI-60 one-dose screen, 48 h; details: 10 µM unless noted
This is part of a sample that, as a whole, favours compounds with a hit. Of some 83,000 tested, about 20% had one in any assay. The source made the active and inactive calls. The calls were made as follows: active = growth percent below 10; inactive = the rest.
Allowed answers: active, inactive

Answer briefly: the call reported for NS(=O)(=O)c1ccc(Nc2nc3n[nH]c(Nc4ccccc4)c3c(=O)[nH]2)cc1 in this assay. inactive

Answer briefly: the call reported for COc1cc(NCCCCCN=C(N)NC(N)=NC(C)C)c2ncccc2c1 in this assay. inactive

Answer briefly: the call reported for COc1ccc(/C=C2\N=C3Sc4cc(Cl)ccc4C(=O)N3C2=O)cc1 in this assay. inactive

Answer briefly: the call reported for CC(C)[C@H]1COC(=O)N1[C@@H]1C(=O)N([C@@H](CCC(=O)N2CCN(C3CCCC3)CC2)C(=O)N[C@@H]2CCCc3ccccc32)[C@@H]1/C=C/c1cccc(Br)c1 in this assay. inactive

Answer briefly: the call reported for CC/C=C\C[C@H](O)C/C=C1/C(=O)C=C[C@@H]1C/C=C\CCCC(=O)OC(C)C in this assay. active

Answer briefly: the call reported for Cc1ccc(S(=O)(=O)n2cc(-c3csc(-c4cn(C)c5ncccc45)n3)c3ccccc32)cc1 in this assay. inactive

Answer briefly: the call reported for NS(=O)(=O)c1ccc(-n2ncc3c(=O)[nH]c(CN4CCN(c5cc6c(cc5F)c(=O)c(C(=O)O)cn6C5CC5)CC4)nc32)cc1 in this assay. inactive

Answer briefly: the call reported for Nc1c(C(=O)Nc2cccc3c2OCCO3)sc2nc3c(cc12)C(=O)CCC3 in this assay. inactive

Answer briefly: the call reported for O=c1ccc2cc3ccccc3cc2[nH]1 in this assay. inactive

Answer briefly: the call reported for COc1ccc2nc3cc(Cl)ccc3c(N3CCN(c4ccnc(N5CCOCC5)n4)CC3)c2c1 in this assay. inactive

Answer briefly: the call reported for CCN(CC)Cc1cc(Nc2c3ccccc3nc3cc(Cl)ccc23)ccc1O in this assay. active
